# experimentDescription: recombinant barcode read abundance after kanamycin selection (control-corrected) (log10(CPM+1)); higher = more efficient recombination; sequences stand for … in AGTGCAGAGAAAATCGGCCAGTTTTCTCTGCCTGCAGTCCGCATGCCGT…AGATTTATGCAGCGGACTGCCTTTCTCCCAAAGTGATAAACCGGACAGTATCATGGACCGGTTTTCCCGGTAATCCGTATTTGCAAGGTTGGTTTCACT; site = the 11-nt target;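 note: IS621 recombinase and bridge RNA in Escherichia coli cells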
quantity: recombinant barcode read abundance (log10)
Write the value as a bare number.

Reference set (8 entries):
[[record]]
orderedresidues = "CAGAGCCCTTGGGTTCTAACCTGTTGCTG (site CTGAGCCCTCA)"
reportedvalue = 0.0157

[[record]]
orderedresidues = "AGCGAGTCTTGGGTTCTAACCTGTTGCCT (site AGCGAGTCTAG)"
reportedvalue = 2.08

[[record]]
orderedresidues = "GTATGAACTTGGGTTCTAACCTGTTGCCT (site GTATGAACTAG)"
reportedvalue = 1.44

[[record]]
orderedresidues = "CTAAGATCTTGGGTTCTAACCTGTTGCCT (site CAAAGATCTAG)"
reportedvalue = 0.0172

[[record]]
orderedresidues = "AAGGTACCTTGGGTTCTAACCTGTTGCGG (site GTCACTACTAT)"
reportedvalue = 0.0994

[[record]]
orderedresidues = "TAATCGCCTTGGGTTCTAACCTGTTGCCT (site TAATCGTCTAG)"
reportedvalue = 0

[[record]]
orderedresidues = "GGCAGATCTTGGGTTCTAACCTGTTGCTT (site GGCAGCTCTAA)"
reportedvalue = 0.043

[[record]]
orderedresidues = "TAGTCCTCTTGGGTTCTAACCTGTTGCTT (site TAGTCCTCTAA)"
reportedvalue = 1.22


INPUT: Quote recombinant barcode read abundance (log10) reported for CACAAGTCTTGGGTTCTAACCTGTTGCAG (site CACAAGTCTCG) please.
OUTPUT: 0.519

INPUT: Look up and report measured recombinant barcode read abundance (log10) for this entry: ACCCTATCTTGGGTTCTAACCTGTTGCCT (site ACCCTAACTCG)
OUTPUT: 0.0342

----------
# experimentDescription: recombinant barcode read abundance after kanamycin selection (control-corrected) (log10(CPM+1)); higher = more efficient recombination; sequences stand for … in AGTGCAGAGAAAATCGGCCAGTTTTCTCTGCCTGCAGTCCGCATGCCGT…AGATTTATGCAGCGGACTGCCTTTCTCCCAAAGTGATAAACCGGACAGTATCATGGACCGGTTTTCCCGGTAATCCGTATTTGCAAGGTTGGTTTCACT; site = the 11-nt target
quantity: recombinant barcode read abundance (log10)
In your answer, state the number alone without any accompanying words.

[[record]]
orderedresidues = "CTAGTGACTTGGGTTCTAACCTGTTGCGT (site CTAGTGACTTC)"
reportedvalue = 0.00958

[[record]]
orderedresidues = "GGCACGACTTGGGTTCTAACCTGTTGCCT (site GGCACCACTAG)"
reportedvalue = 0.221

[[record]]
orderedresidues = "GGCACTGCTTGGGTTCTAACCTGTTGCCT (site GGCACGGCTAG)"
reportedvalue = 0.189


INPUT: Hello, please tell me recorded recombinant barcode read abundance (log10) for this one: TTCTCTCCTTGGGTTCTAACCTGTTGCCT (site TTCTGTCCTAG)
OUTPUT: 0.00855

INPUT: Write down recombinant barcode read abundance (log10) measured for item GTAACTACTTGGGTTCTAACCTGTTGCTC (site ACGTAACCTAG)
OUTPUT: 0.0897

INPUT: Give a short answer stating reported recombinant barcode read abundance (log10) for GAGCAGACTTGGGTTCTAACCTGTTGCCT (site GAGCAGACTAG) .
OUTPUT: 0.931

INPUT: Entry TATTCTCCTTGGGTTCTAACCTGTTGCCT (site TATTCTCCTAA) needs its recombinant barcode read abundance (log10) filled in; supply it.
OUTPUT: 0.212

INPUT: Tell me recombinant barcode read abundance (log10) reported for CATCAGCCTTGGGTTCTAACCTGTTGCGT (site TATCAGCCTAA)
OUTPUT: 0.174

INPUT: Give recorded recombinant barcode read abundance (log10). CCGTGAACTTGGGTTCTAACCTGTTGCCT (site CTGTGAACTAG)
OUTPUT: 0.163

INPUT: Supply measured recombinant barcode read abundance (log10) of TGAACTCCTTGGGTTCTAACCTGTTGCCT (site TGAACTCCTAG) in your reply.
OUTPUT: 0.122
